- TEST_TARGET: Neuraminidase (Influenza B virus (strain B/Lee/1940))
- Sequence (P03474 whole entry): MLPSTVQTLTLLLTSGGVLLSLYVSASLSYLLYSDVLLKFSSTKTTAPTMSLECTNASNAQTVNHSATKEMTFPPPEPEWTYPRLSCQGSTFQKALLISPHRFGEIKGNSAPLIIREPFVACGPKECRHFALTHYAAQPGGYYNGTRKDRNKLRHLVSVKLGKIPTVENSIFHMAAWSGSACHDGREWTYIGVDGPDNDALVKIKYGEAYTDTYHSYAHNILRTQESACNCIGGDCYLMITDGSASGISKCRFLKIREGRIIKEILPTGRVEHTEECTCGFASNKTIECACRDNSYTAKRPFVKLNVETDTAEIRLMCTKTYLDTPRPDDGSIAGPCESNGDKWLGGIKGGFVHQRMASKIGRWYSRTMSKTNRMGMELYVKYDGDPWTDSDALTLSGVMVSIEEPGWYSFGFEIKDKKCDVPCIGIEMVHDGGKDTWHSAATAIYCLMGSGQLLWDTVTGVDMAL
- ASSAY_EXPLANATION: In vitro inhibitory activity against B/Lee/40 Influenza B Neuraminidase.
VALUE_KIND: IC50

Known results for compounds:
• N=C(N)Nc1cc(C(=O)O)ccc1N1C(=O)CCC1(CO)CO = 8 µM
• O=C(O)c1ccc(N2C(=O)CCC2(CO)CO)cc1 = > 8000 µM
• CC(=O)Nc1c(N=C(N)N)cc(C(=O)O)cc1N=C(N)N = 250 µM
• CCC(CC)Nc1cc(C(=O)O)ccc1N1C(=O)CCC1(CO)CO = 104 µM
• CCC(CC)Nc1cc(C(=O)O)ccc1N1CCCC1=O = > 5000 µM

Lab note: next compound to report on.
Could you please provide reported IC50 for NCC1CCC(=O)N1c1ccc(C(=O)O)cc1N=C(N)N (stereo unspecified) ? Thanks!
500 µM
